Assay: H1N1 influenza NS1A inhibitors, functional cell based assay (AID 504329)
Details: percent inhibition, at 12.5 µM, hits give high values
The whole screen tested about 340,000 compounds, of which about 1,000 (0.29%) were called active. Not all results are given here. Results with a measured potency or affinity are listed apart.
Collected inhibition values appear next to each entry.
Write the number in % without appending the unit.

compound: C/C(=N\Nc1ccccc1)c1c(O)n(-c2ccccc2)c(=O)[nH]c1=O
quantity.unit: %
inhibition: -15.4
--
compound: O=C(CCN1C(=O)/C(=C/c2ccccc2Cl)SC1=S)Nc1cccnc1
quantity.unit: %
inhibition: -1.44
--
compound: COc1ccc(C(=O)Nc2nc(-c3ccc([N+](=O)[O-])cc3)c(-c3ccc(OC)cc3)s2)cc1
quantity.unit: %
inhibition: -6.06
--
compound: CCN1CCN(C(c2ccc(C(F)(F)F)cc2)c2ccc3cccnc3c2O)CC1 (stereo not given)
quantity.unit: %
inhibition: 16.8

Ask: Look up inhibition: `O=C(N1CCCC1)C12CC3CC(CC(C3)C1)C2`
Reply: -8.92

All figures here come from PubChem BioAssay AID504329.
